molecular target: AbyU (Micromonospora maris, UniProt Z9P124SIT8, F95Y, form not given); test: Multiple turnover (burst phase) stopped-flow kinetics of the AbyU catalysed conversion of 5 to 6; format: biochemical, Micromonospora maris AB-18-032; conditions: binding constant, ES conformation; read-out: K1 = k−1/k1
Sequence (Z9P124SIT8 1-160 F95Y): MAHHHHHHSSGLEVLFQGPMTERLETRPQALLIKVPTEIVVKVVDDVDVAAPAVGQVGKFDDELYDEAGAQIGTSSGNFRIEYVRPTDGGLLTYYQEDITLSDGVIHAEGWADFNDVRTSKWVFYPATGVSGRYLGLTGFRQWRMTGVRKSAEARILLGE
outcome_measure: Kd (µM)
Record the value in µM, omitting the unit from your answer.

Given item C=C1OC(=O)C(C(=O)[C@H](C)C[C@H](C)C(=O)/C=C/C=C/C=C/C)=C1OC [compound 5] , the value recorded as its Kd is 3.86
